test: soluble fraction after stress (log2 fold change); higher = more stays soluble; pooled small domains, quantitative proteomics; conditions: stress: 50 degC
MEASURE: soluble fraction (log2)

[[record]]
construct_sequence = "HMGELDFYEEMRDDYLTGKIWNVGEIVEAKGMIGEIVRKGTNYISFVTDDNKVHKAWLHEIKL"
measure = "soluble fraction (log2)"
recorded_value = -0.634

[[record]]
construct_sequence = "HMDVLKVFSHNVRRYRTQLGLSQETVAFRTGLHRTYISAVERGKRSISLDNIQKIADALEVETYLLFI"
measure = "soluble fraction (log2)"
recorded_value = -1.72

[[record]]
construct_sequence = "HMQPQIDFEIDVEVRASSLRIVAAPNSDVLVATVGRGEHVVQLTYPKDGWVMIRTADDRVGFVPESLLL"
measure = "soluble fraction (log2)"
recorded_value = -0.255

[[record]]
construct_sequence = "HMSEMVIPEDFLAALETNPQAKAFYATLNRQNQYAVYHRLQTAKRPETRAKRIADFVAQLAAGKRF"
measure = "soluble fraction (log2)"
recorded_value = -0.355


###

assay: soluble fraction after stress (log2 fold change); higher = more stays soluble; pooled small domains, quantitative proteomics; conditions: stress: 50 degC
MEASURE: soluble fraction (log2)

[[record]]
construct_sequence = "HMTEEEEFEKGFEILVNLSHFNRFSVYKEDEYVIVRIADYDFNEYFKVKKSDVGRIAEFLNENIT"
measure = "soluble fraction (log2)"
recorded_value = -2.4

[[record]]
construct_sequence = "HMSFPQVELNTNKGRIVLELNSEKAPKTVANFLEYVRDGFYDGVIFHRVIDGFMIQGGGFDENFKEKA"
measure = "soluble fraction (log2)"
recorded_value = -0.229

[[record]]
construct_sequence = "HMSKQLGFKIKTARRKLNISQGDLSKKLEISPSYLNLIESGKRKVSTDLLMKASEILNLDLKKL"
measure = "soluble fraction (log2)"
recorded_value = -0.281

[[record]]
construct_sequence = "HMELLTYREMDVLNLLDQRLTNKEIAHALGISTETVRQHTVNLFRKLNVDNRRQAIVVARSLGYIGTPT"
measure = "soluble fraction (log2)"
recorded_value = -1.2

[[record]]
construct_sequence = "HMVAGHLQEKKGYFYMVLTYRDHEGKRKSKWLPTGLTIKGNKKRAQDLLQDARKNFVPDIPT"
measure = "soluble fraction (log2)"
recorded_value = -1.32

[[record]]
construct_sequence = "HMKEIKRLVELSPGRYFIEGATNIRVFGINGSLLLDTKGETVDLSDLAKGVYLLKTDGVTYKVL"
measure = "soluble fraction (log2)"
recorded_value = -0.543

[[record]]
construct_sequence = "HMPTTLEGIEKYLSSGLIKGIGPHLAGKLVEAFGTRVFEVVEHQPERLRTVGGIGRTRAESITSAWRDQ"
measure = "soluble fraction (log2)"
recorded_value = -0.168

[[record]]
construct_sequence = "HMSSSYMVRITTSVLNVRKGPGTNYGITTKVKKGEVYTIVAEEKNGNTTWGKLKSGTGYISLGYTER"
measure = "soluble fraction (log2)"
recorded_value = -1.29


###

assay: soluble fraction after stress (log2 fold change); higher = more stays soluble; pooled small domains, quantitative proteomics; settings: stress: 50 degC
Use label 1 when the recorded soluble fraction (log2) is no lower than -0.2; use label 0 when it is lower.

[[record]]
construct_sequence = "HMEKIIGQIQINQRGNGYVIVPNVKDDIFVKRENLNSARQGDRVAVQLLSRPNQKPEGLVQEVLERGQ"
group = "label 1"

[[record]]
construct_sequence = "HMTSAPHHIAAVLRDAIYRGVLEEGGPLHQARIAQSLGVSPIPLREALRLLETEGLVEFRGYRGAFVT"
group = "label 0"

[[record]]
construct_sequence = "HMGTDIGADKAAQTALADAGLSSSQVTGLRTKQDWDDGQLRYEVEFRAGGVEYDYELAADGTILKADRDT"
group = "label 1"

[[record]]
construct_sequence = "HMPNIHVVFAEEWTDRRLDKVLSEYFDGYSRSFIKKLFDDGLILVNSKAVKPSYKVRAGDMIDISVPDPV"
group = "label 0"

[[record]]
construct_sequence = "HMSGPAEDLLAIEGMDKELAYELAARGIRTRDELADQSLDELEAVPGLDPVRAGQLIMAARAHLFENAGQ"
group = "label 1"

[[record]]
construct_sequence = "HMKKVIKIEENVSLQKLAALMSLKVTDVLMRLLSMGMSGVNINSTIDADTAKILASEFGWTVED"
group = "label 0"

[[record]]
construct_sequence = "HMGRDWKTDLLNLATARGWGDVSYEVTGEGPDHARVYTAVAIVANQKTGTGVGPSKKEAERLAAEQAYRML"
group = "label 1"

[[record]]
construct_sequence = "HMTITPEVIVNHFKNLDLFFTKNGNYYEFKKKGTENILFKYGIYKQKPNIFVKIQRYPISSLSDLERIPI"
group = "label 0"

[[record]]
construct_sequence = "HMDSINIDEETAKLGPNAPQIIDGIKKWGQGLVAKGVWSDEDFDEFKVFAATSSGINALNKIRKYY"
group = "label 1"

[[record]]
construct_sequence = "HMGGPTARQMEVLSLIAQGLPNKRIADELGIAERTVKLHITALLDSLGARNRTHLLVVARERGM"
group = "label 0"

[[record]]
construct_sequence = "HMSMSKISNLLEIMMIIQYKGLTTASELAQSLGVDKKTVYRYINSLSKANIPIYTKKGRYGGFYIDKNF"
group = "label 0"

[[record]]
construct_sequence = "HMNIVVSSIDSNSFEIVNKETGEQAVISYDKETKKGFVLINGVKKEFFQDGNKVYYDGYVIAE"
group = "label 1"

[[record]]
construct_sequence = "HMHHDDHNQQEEIKEKLLAMVADGERHHVTEVRQLDEDWDMVTKVMKELMDEEQLLMDGSYLILSA"
group = "label 1"

[[record]]
construct_sequence = "HMDKEPTHLHTFRLIKEGKSSEEIAEIRNITLGTVNTHLAKLIAVGELTIEQVISKHRLDYVMEAIKNSK"
group = "label 1"

[[record]]
construct_sequence = "HMNNEISINGNKIYFNKNISKVFIYDISGKLIKHKNNFNNNFIDLSEFNSAFYIIKALDINENYTTKKIFL"
group = "label 0"

[[record]]
construct_sequence = "HMDEQLAWLYRKINAFSEIDKALILLYLEDKKYDEIAETLGISSVNARVKMNRIKKRLKEMINDR"
group = "label 0"


###

assay: soluble fraction after stress (log2 fold change); higher = more stays soluble; pooled small domains, quantitative proteomics; conditions: stress: 50 degC
Use Y when the recorded soluble fraction (log2) is no lower than -0.4; use N when it is lower.

[[record]]
construct_sequence = "HMKYYIYQGVGASGELTKIAEVTDQKTYTVTGLQAKTTYRFAVSSYNGLRESTKSNIVTVTT"
group = "Y"

[[record]]
construct_sequence = "HMAGLELVVTREQAGRTVKSLLRGELGISTALMGRLKRTGTGLTVNGTRVFTNAVLREGDRLAVDLDAAE"
group = "N"

[[record]]
construct_sequence = "HMVKIIHYEVYANRGDGWKLVDQFSADQRQEAVNLAKEIETEDQVAVKIIREIFDVQDNTYQESVEYIG"
group = "N"

[[record]]
construct_sequence = "HMDNMFMPPVNGWDVRQALQKLQNEMGLQVKMEYSPSETITEGYVISYTPIDGMKVEKGDEVTLVISTGPE"
group = "Y"

[[record]]
construct_sequence = "HMESSSQLGFELARLVESGNDEEARALVQAKELSEADERKWLYHLGNLLHAAGRPLQASAIWREVGT"
group = "Y"

[[record]]
construct_sequence = "HMAVIILDEPTLGLDPAVRISLWQAIQSARDSTMSAFLITTHYIKEVADYLSAVKILDHGREVASGNPSAL"
group = "Y"

[[record]]
construct_sequence = "HMDDLSPEENKVIGAQVREELARRRLSRQHLADKAKISLSTLEKALTGTRPFTLASVVRIEEALQLQLRK"
group = "N"


###

assay: soluble fraction after stress (log2 fold change); higher = more stays soluble; pooled small domains, quantitative proteomics; conditions: stress: 50 degC
Use 1.0 when the recorded soluble fraction (log2) is no lower than -0.4; use 0.0 when it is lower.

[[record]]
construct_sequence = "HMGKFMVQVGAFSRINGAEITRTKYDNLGTHKAIIKNLDGMNRVFLTGFLSEDEARDFIASSNLKGAFIIR"
group = 0.0

[[record]]
construct_sequence = "HMQNVKIKAEVKGEVISPGVYELDEESRIQDLIDASGGFSDKAYYDNINLSMKLKDEMVLVVYDKDKI"
group = 1.0

[[record]]
construct_sequence = "HMEEDPVIAAQRFLNIFRQLHIFTAAKRKEFDELLLKQPASVKGMFASLPGGSVLQEYVNNLEQNAG"
group = 1.0

[[record]]
construct_sequence = "HMRMRPNERQKRIIELLSFRRHETIGNFANEFGVSRDTIKRDIITLQEEYPIISERGYEGGISLPDGYYI"
group = 1.0

[[record]]
construct_sequence = "HMNKLSISALAETVSTKRKEKSMTQQDLSDATGINRALISRLEQKDFIPSIPQLEKLEEILGFELEEVF"
group = 1.0

[[record]]
construct_sequence = "HMDELPKDILRSFGLPDKPWAMELLRNLRRDGFALDGETARAYAEMAAMKPPRTDARQWMTAADVAYRRG"
group = 1.0

[[record]]
construct_sequence = "HMLSVTLTVLPQQAGERLDAFAAAESTLSRSAAAKLIEDGQITVNGARAAKNYRLRAGDVIEIDEPEPI"
group = 1.0

[[record]]
construct_sequence = "HMNILNFSENIIKLRHKKGITQEELADFVGVTKASVSKWETKQSLPDIMLLPRLAAYFDVTVDELLGYEP"
group = 1.0

[[record]]
construct_sequence = "HMEELTDSELNNLYRELFIARSNASDGVGIIEQKTIKGITYRLSNDNNYLIKELGNKEYIYKNGVWEEYT"
group = 1.0

[[record]]
construct_sequence = "HMGTTTPPATRKGKVTSSFLNVRSGPSTANAKVAELKQNAVVTIYETSSNGWHRIGVNQWVIGTNIQE"
group = 0.0

[[record]]
construct_sequence = "HMENVLFVNVLSMTVRELAEMMKIPVNKIIQDSFSKGIMMNPNQRLEYDNFAELAKKYGITVKI"
group = 0.0

[[record]]
construct_sequence = "HMSEVIYVAEDNVGQRIDVFLVNKLVDASRANIQKNIVDGVILVNNKNVKANYKLRLGDVVEIRTQ"
group = 1.0

[[record]]
construct_sequence = "HMKLNEQSMQVIDRIVDRHRGRPGPVKLMLHDVQKELGYIPFEAMEKIAAASGVSADEVYGVVTFYTQFTT"
group = 1.0

[[record]]
construct_sequence = "HMVNHEERKRLIAEATWRTISHVGIEQASVRTIAKEAGLSLGALRYYFTTQEELLRFSMQLVQERV"
group = 1.0

[[record]]
construct_sequence = "HMEEFLSFIADILEVDKNTLTLETSQDDVETWDSLMQLRLLGEIEAKYGVMIPMERISTIKKLNDFYQYIK"
group = 0.0

[[record]]
construct_sequence = "HMEFQVKVIVSSLNIRSGPGTSYDTLGTVTKGDIFTIVETNSDSTWGKMQSGGWISIKDAYVKK"
group = 0.0

[[record]]
construct_sequence = "HMPYHSEAWHKVMKSHWLTLSREEAYMHEGRTGASTINIVFQRELGREATQEEIESIYQEKSVLFNSYP"
group = 0.0

